// provenance: ChEMBL document CHEMBL3862000

Assay: Drug uptake in C57bl/6j mouse brain without cerebellum at 20 mg/kg, po measured at 4 hr post dose by LC/MS analysis
Type: ADME, organism-based
Settings: in vivo
Recorded Drug uptake by entry

query_smiles | Drug uptake (nmol/g)
O=C(NC1(c2ccccn2)CC1)c1nn(-c2ccc(Cl)cc2)c2c1CCC/C2=C\c1ccc(Cl)cc1 | 1.28
C[C@@H](NC(=O)c1nn(-c2ccc(Cl)c(Cl)c2)c2c1CCC/C2=C\c1ccc(Cl)s1)c1ccccn1 | 0.1
C[C@@H](NC(=O)c1nn(-c2ccc(Cl)cc2Cl)c2c1CCC/C2=C\c1ccc(Cl)cc1)c1ccccn1 | 0.32
O=C(NC1(c2ccccn2)CC1)c1nn(-c2ccc(C(F)(F)F)cc2Cl)c2c1CCCC/C2=C\c1ccc(Cl)s1 | 0.36
O=C(NC1(c2ccccn2)CC1)c1nn(-c2ccc(C(F)(F)F)cc2Cl)c2c1CCC/C2=C\c1ccc(Cl)s1 | 0.64
O=C(NC1CCN(c2ccccn2)CC1)c1nn(-c2ccc(Cl)cc2Cl)c2c1CCC/C2=C\c1ccc(Cl)cc1 | 0.04
C[C@@H](NC(=O)c1nn(-c2ccc(C(F)(F)F)cc2Cl)c2c1CCC/C2=C\c1ccc(Cl)s1)c1ccccn1 | 0.051
C[C@@H](NC(=O)c1nn(-c2ccc(C(F)(F)F)cc2Cl)c2c1CCCC/C2=C\c1ccc(Cl)s1)c1ccccn1 | 0.17

----------
Recorded Kp by entry
Test: Ratio of drug level in C57bl/6j mouse brain to plasma at 20 mg/kg, po
Assay type: ADME, organism-based
Settings: read-out: BPR

query_smiles | Kp
C[C@@H](NC(=O)c1nn(-c2ccc(Cl)cc2Cl)c2c1CCCC/C2=C\c1ccc(Cl)s1)c1ccccn1 | 0.15
O=C(NC1(c2ccccn2)CC1)c1nn(-c2ccc(C(F)(F)F)cc2Cl)c2c1CCCC/C2=C\c1ccc(Cl)s1 | 0.24
C[C@@H](NC(=O)c1nn(-c2ccc(Cl)c(Cl)c2)c2c1CCCC/C2=C\c1ccc(C(F)(F)F)cc1)c1ccccn1 | 0.01
O=C(NC1(c2ccccn2)CC1)c1nn(-c2ccc(Cl)c(Cl)c2)c2c1CCCC/C2=C\c1ccc(F)cc1 | 0.05
C[C@@H](NC(=O)c1nn(-c2ccc(C(F)(F)F)cc2Cl)c2c1CCC/C2=C\c1ccc(Cl)s1)c1ccccn1 | 0.11
C[C@@H](NC(=O)c1nn(-c2ccc(Cl)cc2Cl)c2c1CCCC/C2=C\c1ccc(Cl)cc1)c1ccccn1 | 0.16

----------
Recorded pEC50 by entry
Target: Cannabinoid receptor 2 (Homo sapiens, UniProt P34972)
Sequence (P34972 whole entry): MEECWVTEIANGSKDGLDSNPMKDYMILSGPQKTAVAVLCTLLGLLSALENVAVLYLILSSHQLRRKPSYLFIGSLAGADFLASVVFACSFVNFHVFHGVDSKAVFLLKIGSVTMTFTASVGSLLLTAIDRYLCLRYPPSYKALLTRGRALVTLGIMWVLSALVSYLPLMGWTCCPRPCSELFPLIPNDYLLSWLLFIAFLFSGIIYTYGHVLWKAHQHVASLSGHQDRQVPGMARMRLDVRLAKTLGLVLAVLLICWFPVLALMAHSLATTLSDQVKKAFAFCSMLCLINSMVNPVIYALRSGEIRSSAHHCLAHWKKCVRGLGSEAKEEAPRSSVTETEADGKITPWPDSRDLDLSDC
Assay: Inverse agonist activity at human cannabinoid receptor 2 expressed in HEK293 cells assessed as increase in forskolin-induced cAMP production preincubated with cells followed by forskolin stimulation measured after 30 mins in presence of D2-labeled cAMP and Eu3+-TBP-NHS cryptate by HTRF assay
pEC50: −log10 of the molar value.
property_measured: pEC50

query_smiles | property_measured | data_value
C[C@@H](NC(=O)c1nn(-c2ccc(Cl)c(Cl)c2)c2c1CCC/C2=C\c1ccc(Cl)s1)c1ccccn1 | pEC50 | < 5.00
O=C(NC1CCN(c2ccccn2)CC1)c1nn(-c2ccc(Cl)cc2Cl)c2c1CCC/C2=C\c1ccc(Cl)cc1 | pEC50 | < 5.00
C[C@@H](NC(=O)c1nn(-c2ccc(C(F)(F)F)cc2Cl)c2c1CCCC/C2=C\c1ccc(Cl)s1)c1ccccn1 | pEC50 | < 5.00
